system: DU-145; experiment: Potency index, ratio of curcumin IC50 to test compound IC50 for human DU145 cells; format: functional
Reported Metric: Ratio IC50
Answer field: number only, no words.

{"columns": ["Query Smiles", "Ratio IC50"],
 "data": [
  ["COc1ccc(/C=C/C(=O)/C=C/c2nc3ccccn3c2-c2ccc(F)c(F)c2)cc1OC", 6.8],
  ["COc1ccc(OC)c(/C=C/C(=O)/C=C/c2nc3ccccn3c2-c2ccc(F)c(F)c2)c1", 7.9],
  ["COc1cc(OC)c(/C=C/C(=O)/C=C/c2nc3ccccn3c2-c2ccc(F)c(F)c2)c(OC)c1", 11.1],
  ["COc1ccc(OC)c(/C=C/C(=O)/C=C/c2nc3ccccn3c2-c2ccccc2)c1", 9.8]
]}

Continue with the compound presented below.
Quick one: Ratio IC50 of COc1cc(OC)c(OC)cc1/C=C/C(=O)/C=C/c1nc2ccccn2c1-c1ccccc1 ? 8.9

* * *

Overview of recorded Ratio IC50 for various compounds
system: NCI-H460; assay: Potency index, ratio of curcumin IC50 to test compound IC50 for human NCI-H460 cells; assay type: functional
In your answer, state the number alone without any accompanying words.

Take a look at these entries with their results.
{"columns": ["Query Smiles", "Ratio IC50"],
 "data": [
  ["COc1ccc(-c2c(/C=C/C(=O)/C=C/c3ccc(OC)c(OC)c3)nc3ccccn23)cc1", 4],
  ["COc1ccc(OC)c(/C=C/C(=O)/C=C/c2nc3ccccn3c2-c2ccc(F)c(F)c2)c1", 5.5],
  ["COc1ccc(/C=C/C(=O)/C=C/c2nc3ccccn3c2-c2ccc(F)c(F)c2)cc1OC", 5.7],
  ["COc1ccc(OC)c(/C=C/C(=O)/C=C/c2nc3ccccn3c2-c2ccccc2)c1", 4.3],
  ["COc1ccc(-c2c(/C=C/C(=O)/C=C/c3cc(OC)c(OC)cc3OC)nc3ccccn23)cc1", 3.1],
  ["COc1cc(OC)c(/C=C/C(=O)/C=C/c2nc3ccccn3c2-c2ccc(F)c(F)c2)c(OC)c1", 6.5],
  ["COc1ccc(/C=C/C(=O)/C=C/c2nc3ccccn3c2-c2ccc(F)c(F)c2)c(OC)c1", 1.8]
]}

Consider now this further compound.
Entry under review: COc1cc(OC)c(OC)cc1/C=C/C(=O)/C=C/c1nc2ccccn2c1-c1ccccc1 . Reported Ratio IC50? 6

* * *

In this section, each of the compounds is paired with its reported Ratio IC50.
tested on: DU-145; experiment: Potency index, ratio of curcumin IC50 to test compound IC50 for human DU145 cells; type: functional
// keep it numeric: no unit symbol after the value

Look up Ratio IC50: COc1ccc(-c2c(/C=C/C(=O)/C=C/c3ccc(OC)c(OC)c3)nc3ccccn23)cc1 8.3

For the compound shown here, COc1ccc(/C=C/C(=O)/C=C/c2nc3ccccn3c2-c2ccc(F)c(F)c2)c(OC)c1 , give the reported Ratio IC50. 3.9

Given the entry COc1ccc(-c2c(/C=C/C(=O)/C=C/c3cc(OC)c(OC)cc3OC)nc3ccccn23)cc1 , report its measured Ratio IC50. 5.9

* * *

test: Inhibition of tubulin polymerization in porcine brain at 10 uM after 60 mins by fluorescence assay; parameters: species or system Sus scrofa
Reported Metric: pIC50
The read-out pIC50 is expressed as -log10 of concentration in moles per litre.

Would you kindly share the measured pIC50 for COc1cc(OC)c(/C=C/C(=O)/C=C/c2nc3ccccn3c2-c2ccc(F)c(F)c2)c(OC)c1 ? 5.07

* * *

system: DU-145; experiment: Cytotoxicity against human DU145 cells assessed as inhibition of cell viability after 48 hrs by MTT assay; format: functional, cell-based; settings: DU-145, 48 h
Counter-ions that a name gives are not always drawn.
IC50 values, listed per item

{"columns": ["Molecule", "Observed Result"],
 "data": [
  ["COc1ccc(/C=C/C(=O)/C=C/c2nc3ccccn3c2-c2ccccc2)cc1OC", "> 10 µM"]
]}

Okay, next one:
Hi! What's the reported IC50 for CC[C@]1(O)C[C@H]2CN(CCc3c([nH]c4ccccc34)[C@@](C(=O)OC)(c3cc4c(cc3OC)N(C=O)[C@H]3[C@@](O)(C(=O)OC)[C@H](OC(C)=O)[C@]5(CC)C=CCN6CC[C@]43[C@@H]65)C2)C1 [VINCRISTINE SULFATE] on DU-145? 71.8 µM

* * *

system: DU-145; assay: Cytotoxicity against human DU145 cells assessed as inhibition of cell viability after 48 hrs by MTT assay; assay type: functional, cell-based; conditions: DU-145, 48 h
Reported Metric: IC50

Guide cases for IC50, answers given:
{"columns": ["Query Smiles", "IC50"],
 "data": [
  ["COc1ccc(-c2c(/C=C/C(=O)/C=C/c3ccc(OC)cc3OC)nc3ccccn23)cc1", "> 10 µM"],
  ["COc1cccc(-c2c(/C=C/C(=O)/C=C/c3ccc(OC)cc3OC)nc3ccccn23)c1", "> 10 µM"],
  ["COc1ccc(/C=C/C(=O)/C=C/c2nc3ccccn3c2-c2ccccc2)c(OC)c1", "> 10 µM"],
  ["COc1ccc(-c2c(/C=C/C(=O)/C=C/c3ccc(OC)c(OC)c3)nc3ccccn23)cc1", "4 µM"],
  ["COc1cccc(-c2c(/C=C/C(=O)/C=C/c3cc(OC)ccc3OC)nc3ccccn23)c1", "> 10 µM"]
]}

Look up IC50 for this compound: COc1cc(OC)c(/C=C/C(=O)/C=C/c2nc3ccccn3c2-c2ccc(F)c(F)c2)c(OC)c1 2.97 µM
